Sourced from ChEMBL document CHEMBL4184210

- Tested on: Escherichia coli
- RUN DESCRIPTION: Antimicrobial activity against Escherichia coli expressing beta-lactamase KPC-2 by CLSI broth microdilution method
- Assay type: functional
READOUT LABEL: MIC (µg/mL)
Answers are plain numbers, in µg/mL.

Provide reported MIC for each item, in the same order as listed.
1. Nc1nc(/C(=N/OC2(C(=O)O)CC2)C(=O)N[C@@H]2C(=O)N(S(=O)(=O)O)[C@@H]2CN2CCOC2=O)cs1 (stereo in doubt) [ANCREMONAM]
2. N=C(N)NCc1cnn(C[C@@H]2[C@H](NC(=O)/C(=N\OC3(C(=O)O)CC3)c3csc(N)n3)C(=O)N2S(=O)(=O)O)n1 (stereo in doubt)
3. N=C(N)NCc1cn(C[C@@H]2[C@H](NC(=O)/C(=N\OC3(C(=O)O)CC3)c3csc(N)n3)C(=O)N2S(=O)(=O)O)nn1 (stereo in doubt)

1: 0.125; 2: 0.125; 3: 0.125
